- assay protocol: qHTS for Inhibitors of human tyrosyl-DNA phosphodiesterase 1 (TDP1): qHTS in cells in presence of CPT; note: nearly all actives have a fitted effect of over 55% in size
- condition notes: chicken DT40 Tdp1-/-;hTDP1 cells + 20 nM CPT, ATP luminescence, 48 h; series mostly up to 46.2 µM
The whole screen tested about 420,000 compounds, of which about 50,000 (12%) were called active. Roughly 26% stayed inconclusive and do not appear here. Calls come from the whole dose curve; as a rule, active = well fitted inhibition curve with a large enough effect; inconclusive = small, poorly fitted or top-dose-only effect; inactive = flat fitted curve, though single readings scatter. The list comes from a sample in which actives are over-represented; it also holds close analogues and randomly drawn compounds.
Respond only with the outcome that fits, drawn from class 1 (active), class 0 (inactive)

compound	group
CCCCn1c(N)c(N(CC(C)C)C(=O)c2cccc(S(=O)(=O)N3CCN(C(C)=O)CC3)c2)c(=O)[nH]c1=O	class 0
COC(OC)c1ccnc(SCc2ccccc2Cl)n1	class 0
CCS(=O)(=O)Nc1ccc(C2=NN(C(C)=O)C(c3cccs3)C2)cc1 (stereo unspecified)	class 1
O=C1c2ccccc2C(=O)N1CCC(O)C[N+](=O)[O-] (stereo unspecified)	class 0
CCc1ccc(CN(C)C(=O)C2CCC(=O)N(Cc3cccc(OC)c3)C2)nc1 (stereo unspecified)	class 0
CS(=O)(=O)Nc1cccc(C2=NN(C(=O)c3cccc(F)c3)C(c3cccs3)C2)c1 (stereo unspecified)	class 1
O=C(CC1Oc2ccccc2NC1=O)NCc1ccc(F)cc1 (stereo unspecified)	class 0
CS(=O)(=O)Nc1ccc(C2=NN(S(C)(=O)=O)C(c3cccs3)C2)cc1 (stereo unspecified)	class 0
COC(=O)CSc1nc(C2CC2)nc2ccccc12	class 0
COc1ccc(CNC(=O)c2nnn(CC(=O)Nc3cc(C)cc(C)c3)c2N)cc1	class 0

Returns: the outcome recorded for O=C(/C=C/c1ccc(F)cc1)Nc1cccc(S(=O)(=O)Nc2cccc(C(F)(F)F)c2)c1 in this assay.
class 1

Moving on to the next compound: CNc1ccc(-c2nc(-c3ccccc3C)no2)cc1[N+](=O)[O-]
class 0

Same for CC[C@H](C)C(=O)N[C@H]1CCCN1C(=O)/C=C/c1ccccc1
class 0

And for Cc1noc(C)c1C(=O)OC(C)C(=O)Nc1ccc2c(c1)OCO2 (stereo unspecified) ?
class 0

Please answer likewise for CC(=O)Nc1ccc(NC(=O)COC(=O)c2ccccc2C(=O)c2ccccc2)cc1
class 0

Now consider COc1ccc(C2=NN(C(=O)CCC(=O)O)C(c3cccs3)C2)cc1OC (stereo unspecified) .
class 0

Also need CC(C)N(C(=O)CSc1nc(COc2ccccc2)nc2ccccc12)C(C)C , thanks.
class 1

Data provenance is PubChem BioAssay AID686979.
